read-out: Plasminogen activator inhibitor-1 (PAI1), SERPINE1 (gene 5054); test: BSK_hDFCGF_PAI1: BioMAP Diversity Plus: hDFCGF Assay for Plasminogen activator inhibitor-1 (PAI1) Biomarker Activity (AID 2283066); details: primary human foreskin fibroblasts; actives raise or lower the signal
The source made the active and inactive calls. Rule for the calls: active = hit-call score of the fitted dose curve at least 0.9, where 1 is the maximum; inactive = score below 0.9.
Choose the fitting class; nothing outside active, inactive is accepted.

Task: Hello, I am checking results. What call was entered for CCCCC(CC)COC(=O)/C=C\C(=O)OCC(CC)CCCC (configuration not stated) ?
Output: active

Task: Call for entry CC(C)c1ccc(C(C)C)cc1 :
Output: active

Task: Entry CC(=O)O[C@]1(C(C)=O)CC[C@H]2[C@@H]3C[C@H](C)C4=CC(=O)CC[C@]4(C)[C@H]3CC[C@@]21C : call = ?
Output: inactive

Task: Would you mind telling me which call this test gave N#Cc1ccc(CC(=NNC(=O)Nc2ccc(OC(F)(F)F)cc2)c2cccc(C(F)(F)F)c2)cc1 ?
Output: inactive

Task: So what was the verdict on O=P(c1ccccc1)(c1ccccc1)c1ccccc1 in this test?
Output: inactive

Task: Fill in: this test's call for Cc1ccc(Nc2ccc(O)c3c2C(=O)c2ccccc2C3=O)cc1 is ___
Output: active

Task: Recorded call for O=C=NC1CCC(CC2CCC(N=C=O)CC2)CC1 (configuration not stated) ?
Output: active

Task: Please let me know the test result on file for OC1OC[C@@H](O)[C@H](O)[C@H]1O (some centres not stated) .
Output: inactive

Task: I would be grateful if you could indicate the recorded call for CCc1c(C)cc(N)c(CC)c1N .
Output: inactive

Task: Query: recorded result category for CCCCCCCCC=O in this test
Output: inactive

Task: Dear colleague, could you share the recorded outcome for CC1COc2ccccc2N1C(=O)C(Cl)Cl (configuration not stated) when you have a moment?
Output: active

Task: Short answer needed: outcome of this test for CC(C)(COC(=O)c1ccccc1)COC(=O)c1ccccc1 ?
Output: active

Task: Look up the recorded call for O=C(O)c1ccc([N+](=O)[O-])cc1 in this test.
Output: inactive

Task: Fill in: this test's call for Cc1ccc2n[nH]nc2c1 is ___
Output: inactive

Task: Query: recorded result category for C=C(C)C(=O)O[C@H]1C[C@@H]2CC[C@@]1(C)C2(C)C in this test
Output: active

Task: Which outcome was assigned to CCCCC(CC)COCCC#N (configuration not stated) in this test?
Output: inactive

Task: Hello, I am checking results. What call was entered for CCC(=O)OCc1ccccc1 ?
Output: inactive

Task: What outcome does the record of this test show for COC(=O)c1ccc(C)cc1 ?
Output: inactive

Task: Which outcome did this test record for the molecule O=C1OC2(c3cc(Br)c(O)c(Br)c3Oc3c2cc(Br)c(O)c3Br)c2c(Cl)c(Cl)c(Cl)c(Cl)c21 ?
Output: active

Task: In this assay, the call recorded for BrC1CCC(Br)C(Br)CCC(Br)C(Br)CCC1Br (configuration not stated) was what?
Output: active

Task: Answer briefly: the call reported for O=C1CCCCCCCCCCCCCCO1 in this assay.
Output: active

Task: Outcome? O=C(O)c1cn(-c2ccc(F)cc2)c2cc(N3CCNCC3)c(F)cc2c1=O
Output: inactive

Task: What call does the record list for O=C(O)C[C@H](O)C[C@H](O)/C=C/c1c(C2CC2)nc2ccccc2c1-c1ccc(F)cc1 ?
Output: active

Task: Record lookup: outcome of this test for CNC[C@H](O)c1cccc(O)c1 ?
Output: inactive

Task: Test call, this molecule: NCCNCCN
Output: inactive

Task: Give the logged outcome of this assay for the following molecule: CCCCCCCCCC=O
Output: inactive

Task: So what was the verdict on CC(=O)Nc1ccccc1O in this test?
Output: inactive
